read-out: Interleukin-1 alpha (IL1a), IL1A (gene 3552); experiment: BSK_BE3C_IL1a: BioMAP Diversity Plus: BE3C Assay for Interleukin-1 alpha (IL1a) Biomarker Activity (AID 2283016); details: primary human bronchial epithelial cells; actives raise or lower the signal
Active and inactive are the calls of the source. Rule for the calls: active = hit-call score of the fitted dose curve at least 0.9, where 1 is the maximum; inactive = score below 0.9.
I would appreciate it if you answered using one of these outcomes: active, inactive

{"molecule": "CC1=CC=C(C(C)C)CC1", "assigned.label": "inactive"}

## Input Call for entry CCOC(=O)C1=NOC(c2ccccc2)(c2ccccc2)C1 :
## Output active

## Input Call for entry CCC1(C)C(=O)N(Cl)C(=O)N1Cl (stereo not given) :
## Output inactive

====

assay: BSK_CASM3C_SRB: Viability Assessment in the BioMAP Diversity Plus: CASM3C Assay (AID 2283050); conditions: primary human coronary artery smooth muscle cells;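 note: total protein by SRB staining as cytotoxicity measure in parallel cultures; cells exposed to compound for 24 h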
Activity calls are given as the source filed them. Rule for the calls: active = hit-call score of the fitted dose curve at least 0.9, where 1 is the maximum; inactive = score below 0.9.
I would appreciate it if you answered using one of these outcomes: active, inactive

Examples from the recorded data:
{"compound": "CCNc1nc(NC(C)(C)C)nc(OC)n1", "assigned.label": "inactive"}
{"compound": "CC(C)C(=O)OCCc1ccccc1", "assigned.label": "inactive"}
{"compound": "CC/C=C\\CCOC(=O)c1ccccc1O", "assigned.label": "active"}
{"compound": "CCc1cccc(C)c1N(C(=O)CS(=O)(=O)O)C(C)COC (stereo not given)", "assigned.label": "inactive"}

## Input Call for entry CC1(C)CC(O)CC(C)(C)N1[O] :
## Output inactive

====

assay: BSK_3C_TissueFactor: BioMAP Diversity Plus: 3C Assay for Tissue Factor Biomarker Activity (AID 2282997); conditions: BioMAP 3C HUVEC, tissue factor biomarker readout; actives raise or lower the signal
Active and inactive are the calls of the source. The calls were made as follows: active = hit-call score of the fitted dose curve at least 0.9, where 1 is the maximum; inactive = score below 0.9.
I would appreciate it if you answered using one of these outcomes: t for active, f for inactive

Examples from the recorded data:
{"compound": "Cc1ccc([N+](=O)[O-])cc1N", "assigned.label": "f"}
{"compound": "C=CC(=O)OCCCCCCCC(C)C", "assigned.label": "t"}
{"compound": "Oc1ccc(/C=C/c2cc(O)cc(O)c2)cc1", "assigned.label": "f"}
{"compound": "O=C1CCCCCCCCCCCN1", "assigned.label": "f"}
{"compound": "c1ccc2c(c1)[nH]c1ccccc12", "assigned.label": "f"}
{"compound": "C=CCCCCCCCCC=O", "assigned.label": "f"}
{"compound": "CCOC(=O)C1=NOC(c2ccccc2)(c2ccccc2)C1", "assigned.label": "f"}
{"compound": "O=C(O)C(F)(F)C(F)(F)C(F)(F)C(F)(F)C(=O)O", "assigned.label": "f"}

## Input Call for entry CCN1CN(CC)CN(CC)C1 :
## Output f

## Input Call for entry CC(C)c1cccc(C(C)C)c1N :
## Output f

## Input Call for entry CC(c1cc(C(C)(C)C)cc(C(C)(C)C)c1O)c1cc(C(C)(C)C)cc(C(C)(C)C)c1O :
## Output t

## Input Call for entry Oc1ccccc1Cc1ccccc1O :
## Output f

## Input Call for entry CCOC(=O)/C=C\C(=O)OCC :
## Output f

====

test: BSK_3C_Proliferation: Cell Proliferation Assessment in the BioMAP Diversity Plus: 3C Assay (AID 2283006); conditions: primary human endothelial cells (HUVEC)
Calls of active or inactive are those of the source. Rule for the calls: active = hit-call score of the fitted dose curve at least 0.9, where 1 is the maximum; inactive = score below 0.9.
I would appreciate it if you answered using one of these outcomes: active, inactive

Examples from the recorded data:
{"compound": "COC(OC)(C(=O)c1ccccc1)c1ccccc1", "assigned.label": "inactive"}
{"compound": "CCCCC1C(=O)N(c2ccccc2)N(c2ccccc2)C1=O", "assigned.label": "inactive"}
{"compound": "CC(C)c1cccc(C(C)C)c1N", "assigned.label": "inactive"}

## Input Call for entry C=CC(=O)NC(C)(C)C :
## Output inactive

## Input Call for entry CCOC(=O)C1=NN(c2ccc(Cl)cc2Cl)C(C)(C(=O)OCC)C1 (stereo not drawn) :
## Output inactive

## Input Call for entry O=C(Oc1ccccc1)c1ccccc1C(=O)Oc1ccccc1 :
## Output inactive

## Input Call for entry Cc1c(O)cccc1O :
## Output inactive

## Input Call for entry Nc1ccc(C(=O)O)cc1 :
## Output inactive

Origin of the recorded values: PubChem BioAssay (EPA / NIEHS)
